test: chemical genetic growth profiling, strain panel (AID 1159580);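 note: tested at 20 µM; growth read once vehicle control cultures reached saturation at 30 °C; lower values mean less growth of the strain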
condition-description: S. cerevisiae strains, growth OD, strain wild type
Hit rate of the full screen: of about 5,500 compounds, about 2,000 (36%) were called active. Roughly 18% stayed inconclusive and do not appear here. Cut-off read from the data, not from the text of the source: active = normalized growth mostly below about 0.91 (no sharp cut-off); inconclusive = no clear call, values can overlap the other calls; inactive = mostly above about 0.92. Some of the results follow.
Permitted responses: active, inactive

Worked set:
molecule: C/C=C(/C)C(=O)O[C@@H]1[C@H](OC(C)=O)[C@@]2(CO)C(CC1(C)C)C1=CCC3[C@@]4(C)CC[C@H](O[C@@H]5O[C@H](C(=O)O)[C@@H](O[C@@H]6O[C@H](CO)[C@@H](O)[C@H](O)[C@H]6O)[C@H](O)[C@H]5O[C@@H]5O[C@H](CO)[C@@H](O)[C@H](O)[C@H]5O)[C@](C)(CO)C4CC[C@@]3(C)[C@]1(C)C[C@H]2O (stereo partly drawn)
class-label: inactive
//
molecule: CC(C)(C)OC(=O)C(C)(C)S(=O)(=O)c1ccc(Cl)cc1
class-label: inactive
//
molecule: c1cc2c(cc1N=C1SCC3CCCCN13)OCO2 (stereo not drawn)
class-label: inactive
//
molecule: CCOC(=O)c1sc(-c2ccc(C)cc2)nc1O
class-label: active
//
molecule: Nc1c2c(nc3ccccc13)CCCC2
class-label: inactive

Incoming: Please let me know the test result on file for CC(C)(C)c1nccc(-c2nn(-c3ccc(F)cc3)ccc2=O)n1 .
Outgoing: inactive

Incoming: Then Cc1noc(N)c1C(N)=S ?
Outgoing: inactive

Incoming: Then CO[C@@]12[C@@H]3NC3CN1C1=C(C(=O)C(N)=C(C)C1=O)[C@@H]2COC(N)=O (stereo partly drawn) ?
Outgoing: inactive

Incoming: Then O=[N+]([O-])c1ccc(S(=O)(=O)c2ccc(Cl)cc2)cc1O ?
Outgoing: inactive

Data origin: PubChem BioAssay AID1159580
